Each recorded value in this set is attributed to PubChem BioAssay (NCI).

Assay: NCI Yeast Anticancer Drug Screen. Data for the mgt1 strain (AID 153)
Details: S. cerevisiae mgt1 mutant growth inhibition; at 11.0 µM; active compounds read high
About 79,000 compounds went through this panel and 15% of them were active in at least one assay; those are over-represented in the sample as a whole.
Rule: condition met for growth inhibition not less than 40%, condition not met for anything less.

Cc1cc(O)c2c(c1O)C(=O)C13C(=C2O)C(=O)C2C(O)C1C1C(O)C3C(=O)C3=C(O)c4c(O)cc(C)c(O)c4C(=O)C321 (configuration not stated) : condition met
Cc1cc(O)c2c(c1)C(=O)C=C(Br)C2=O : condition met
CC(=O)O[C@H]1C(=O)[C@@]2(C)[C@H]([C@H](OC(=O)c3ccccc3)[C@]3(O)C[C@H](OC(=O)[C@H](O)[C@@H](NC(=O)c4ccccc4)c4ccccc4)C(C)=C1C3(C)C)[C@]1(OC(C)=O)CO[C@@H]1C[C@@H]2O : condition not met
Nc1ccc2c(=S)c3ccccc3[nH]c2c1 : condition not met
Cc1cc(C(C)(C)CC(C)(C)C)cc(O)c1O : condition met

API: above_or_equal(metric=growth inhibition, cutoff=40%) for item "C=C1N(C)c2ccc(Cl)cc2C1(C)C"
condition not met

API: above_or_equal(metric=growth inhibition, cutoff=40%) for item "c1ccc2c(c1)Cn1c-2nc2ccccc21"
condition not met

API: above_or_equal(metric=growth inhibition, cutoff=40%) for item S=C(S)NCC1CCC(CNC(=S)S)CC1 (configuration not stated)
condition not met

API: above_or_equal(metric=growth inhibition, cutoff=40%) for item "N#C/C(=C1C=C(Br)/C(=N\O)C=C\1Cl)c1cccc2ccccc12"
condition met
